Data provenance is patent US6376497B1.

tested on: Aspergillus furnigatus B. 19119; assay: In vitro antifungal activity, microbroth dilution MIC; assay type: cell-based; details: A furnigatus B. 19119, RPMI-1640, 35° C., 4 to 48 hours
Quick reference: Minimal inhibitory concentration (MIC) of the listed items.

{"molecule": "Cc1ccc(C=C(F)OCC2COC(Cn3ccnc3)(c3ccc(Cl)cc3Cl)O2)cc1C (stereo not shown)", "tgt": "Aspergillus furnigatus B. 19119", "modifier.sign": "=", "Minimal inhibitory concentration (MIC) / µg/mL": 6.25}
{"molecule": "Cc1ccc(C(=C(F)OCC2COC(Cn3ccnc3)(c3ccc(Cl)cc3Cl)O2)C(F)(F)F)cc1 (stereo not shown)", "tgt": "Aspergillus furnigatus B. 19119", "modifier.sign": "=", "Minimal inhibitory concentration (MIC) / µg/mL": 50.0}
{"molecule": "Cc1cccc(C=C(F)OCC2COC(Cn3ccnc3)(c3ccc(F)cc3F)O2)c1 (mixture of isomers)", "tgt": "Aspergillus furnigatus B. 19119", "modifier.sign": ">", "Minimal inhibitory concentration (MIC) / µg/mL": 100}
{"molecule": "CCc1ccc(C(=C(F)OCC2COC(Cn3ccnc3)(c3ccc(Cl)cc3Cl)O2)C(F)(F)F)cc1 (stereo not shown)", "tgt": "Aspergillus furnigatus B. 19119", "modifier.sign": "=", "Minimal inhibitory concentration (MIC) / µg/mL": 50.0}
{"molecule": "FC(=Cc1ccc2c(c1)OCO2)OCC1COC(Cn2ccnc2)(c2ccc(F)cc2F)O1 (mixture of isomers)", "tgt": "Aspergillus furnigatus B. 19119", "modifier.sign": "=", "Minimal inhibitory concentration (MIC) / µg/mL": 1.56}
{"molecule": "Cc1cc(C)cc(C=C(F)OCC2COC(Cn3ccnc3)(c3ccc(F)cc3F)O2)c1 (mixture of isomers)", "tgt": "Aspergillus furnigatus B. 19119", "modifier.sign": "=", "Minimal inhibitory concentration (MIC) / µg/mL": 6.25}
{"molecule": "FC(OCC1COC(Cn2ccnc2)(c2ccc(Cl)cc2Cl)O1)=C(c1ccc(Oc2ccccc2)cc1)C(F)(F)F (stereo not shown)", "tgt": "Aspergillus furnigatus B. 19119", "modifier.sign": "=", "Minimal inhibitory concentration (MIC) / µg/mL": 6.25}

---

Quick reference: Minimal inhibitory concentration (MIC) of the listed items.
tested on: Cryptococcus neoformans IFM. 40092; assay: In vitro antifungal activity, microbroth dilution MIC; type: cell-based; conditions: Cry. neoformans IFM. 40092, RPMI-1640, 35° C., 4 to 48 hours
metric.name: Minimal inhibitory concentration (MIC) (µg/mL)

{"molecule": "Cc1cccc(C=C(F)OCC2COC(Cn3ccnc3)(c3ccc(F)cc3F)O2)c1 (mixture of isomers)", "obs.value": 0.78}
{"molecule": "Cc1ccc(C(=C(F)OCC2COC(Cn3ccnc3)(c3ccc(Cl)cc3Cl)O2)C(F)(F)F)cc1 (stereo not shown)", "obs.value": 0.39}
{"molecule": "FC(=Cc1ccccc1)OC[C@H]1CO[C@](Cn2ccnc2)(c2ccc(Cl)cc2Cl)O1 (relative stereo)", "obs.value": 0.20}
{"molecule": "Cc1ccc(C=C(F)OCC2COC(Cn3ccnc3)(c3ccc(Cl)cc3Cl)O2)cc1 (stereo not shown)", "obs.value": 1.56}

---

tested on: Candida albicans C1-2; experiment: In vitro antifungal activity, microbroth dilution MIC; assay type: cell-based; conditions: C. albicans C1-2, RPMI-1640, 35° C., 4 to 48 hours
Quick reference: Minimal inhibitory concentration (MIC) of the listed items.

{"molecule": "COc1ccc(C(=C(F)OCC2COC(Cn3ccnc3)(c3ccc(F)cc3F)O2)C(F)(F)F)cc1 (mixture of isomers)", "unit.name": "µg/mL", "modifier.sign": "=", "Minimal inhibitory concentration (MIC)": 12.5}
{"molecule": "FC(=Cc1ccc(Cl)cc1)OCC1COC(Cn2ccnc2)(c2ccc(F)cc2F)O1 (mixture of isomers)", "unit.name": "µg/mL", "modifier.sign": "=", "Minimal inhibitory concentration (MIC)": 12.5}
{"molecule": "FC(=Cc1ccc(F)cc1)OCC1COC(Cn2cncn2)(c2ccc(Cl)cc2Cl)O1 (mixture of isomers)", "unit.name": "µg/mL", "modifier.sign": "=", "Minimal inhibitory concentration (MIC)": 100}
{"molecule": "FC(=Cc1ccc2c(c1)OCO2)OCC1COC(Cn2cncn2)(c2ccc(Cl)cc2Cl)O1 (mixture of isomers)", "unit.name": "µg/mL", "modifier.sign": "=", "Minimal inhibitory concentration (MIC)": 100}
{"molecule": "Cc1cc(C=C(F)OCC2COC(Cn3ccnc3)(c3ccc(Cl)cc3Cl)O2)ccc1Cl (centres unmarked)", "unit.name": "µg/mL", "modifier.sign": "=", "Minimal inhibitory concentration (MIC)": 12.5}
{"molecule": "COc1cccc(C=C(F)OCC2COC(Cn3ccnc3)(c3ccc(F)cc3F)O2)c1 (mixture of isomers)", "unit.name": "µg/mL", "modifier.sign": "=", "Minimal inhibitory concentration (MIC)": 25.0}
{"molecule": "CC(C)Oc1cccc(C=C(F)OCC2COC(Cn3ccnc3)(c3ccc(F)cc3F)O2)c1 (mixture of isomers)", "unit.name": "µg/mL", "modifier.sign": "=", "Minimal inhibitory concentration (MIC)": 25.0}
{"molecule": "FC(=Cc1ccc2c(c1)OCO2)OCC1COC(Cn2ccnc2)(c2ccc(F)cc2F)O1 (mixture of isomers)", "unit.name": "µg/mL", "modifier.sign": "=", "Minimal inhibitory concentration (MIC)": 25.0}
{"molecule": "FC(=Cc1ccc(F)cc1)OCC1COC(Cn2ccnc2)(c2ccc(Cl)cc2Cl)O1 (centres unmarked)", "unit.name": "µg/mL", "modifier.sign": "=", "Minimal inhibitory concentration (MIC)": 6.25}
{"molecule": "Cc1ccc(C=C(F)OCC2COC(Cn3ccnc3)(c3ccc(F)cc3F)O2)cc1C (mixture of isomers)", "unit.name": "µg/mL", "modifier.sign": "=", "Minimal inhibitory concentration (MIC)": 12.5}
{"molecule": "CC(C)Oc1cccc(C=C(F)OCC2COC(Cn3ccnc3)(c3ccc(Cl)cc3Cl)O2)c1 (centres unmarked)", "unit.name": "µg/mL", "modifier.sign": "=", "Minimal inhibitory concentration (MIC)": 25.0}
{"molecule": "FC(=Cc1cccc(F)c1)OCC1COC(Cn2ccnc2)(c2ccc(Cl)cc2Cl)O1 (centres unmarked)", "unit.name": "µg/mL", "modifier.sign": "=", "Minimal inhibitory concentration (MIC)": 3.13}
{"molecule": "FC(=Cc1ccc(F)cc1)OCC1COC(Cn2ccnc2)(c2ccc(F)cc2F)O1 (mixture of isomers)", "unit.name": "µg/mL", "modifier.sign": "=", "Minimal inhibitory concentration (MIC)": 25.0}
{"molecule": "CCc1ccc(C=C(F)OCC2COC(Cn3ccnc3)(c3ccc(F)cc3F)O2)cc1 (mixture of isomers)", "unit.name": "µg/mL", "modifier.sign": "=", "Minimal inhibitory concentration (MIC)": 12.5}
{"molecule": "FC(OCC1COC(Cn2cncn2)(c2ccc(Cl)cc2Cl)O1)=C(c1ccccc1)C(F)(F)F (mixture of isomers)", "unit.name": "µg/mL", "modifier.sign": ">", "Minimal inhibitory concentration (MIC)": 100}
{"molecule": "Cc1cc(C=C(F)OCC2COC(Cn3ccnc3)(c3ccc(F)cc3F)O2)ccc1Cl (mixture of isomers)", "unit.name": "µg/mL", "modifier.sign": "=", "Minimal inhibitory concentration (MIC)": 12.5}
{"molecule": "FC(=Cc1cccc2ccccc12)OCC1COC(Cn2ccnc2)(c2ccc(F)cc2F)O1 (mixture of isomers)", "unit.name": "µg/mL", "modifier.sign": "=", "Minimal inhibitory concentration (MIC)": 12.5}
{"molecule": "CCc1ccc(C(=C(F)OCC2COC(Cn3ccnc3)(c3ccc(F)cc3F)O2)C(F)(F)F)cc1 (mixture of isomers)", "unit.name": "µg/mL", "modifier.sign": "=", "Minimal inhibitory concentration (MIC)": 12.5}
{"molecule": "FC(OCC1COC(Cn2ccnc2)(c2ccc(F)cc2F)O1)=C(c1cccc(Cl)c1)C(F)(F)F (mixture of isomers)", "unit.name": "µg/mL", "modifier.sign": "=", "Minimal inhibitory concentration (MIC)": 12.5}
{"molecule": "CCc1ccc(C=C(F)OCC2COC(Cn3cncn3)(c3ccc(Cl)cc3Cl)O2)cc1 (mixture of isomers)", "unit.name": "µg/mL", "modifier.sign": "=", "Minimal inhibitory concentration (MIC)": 25.0}
{"molecule": "Cc1ccc(C=C(F)OCC2COC(Cn3cncn3)(c3ccc(Cl)cc3Cl)O2)cc1 (mixture of isomers)", "unit.name": "µg/mL", "modifier.sign": "=", "Minimal inhibitory concentration (MIC)": 50.0}
{"molecule": "FC(=Cc1ccccc1)OCC1COC(Cn2cncn2)(c2ccc(Cl)cc2Cl)O1 (mixture of isomers)", "unit.name": "µg/mL", "modifier.sign": "=", "Minimal inhibitory concentration (MIC)": 25.0}
{"molecule": "Cc1ccc(C=C(F)OCC2COC(Cn3ccnc3)(c3ccc(F)cc3F)O2)cc1 (mixture of isomers)", "unit.name": "µg/mL", "modifier.sign": "=", "Minimal inhibitory concentration (MIC)": 12.5}
{"molecule": "Cc1cccc(C=C(F)OCC2COC(Cn3cncn3)(c3ccc(Cl)cc3Cl)O2)c1 (mixture of isomers)", "unit.name": "µg/mL", "modifier.sign": "=", "Minimal inhibitory concentration (MIC)": 25.0}
{"molecule": "CCOc1ccc(C=C(F)OCC2COC(Cn3ccnc3)(c3ccc(F)cc3F)O2)cc1 (mixture of isomers)", "unit.name": "µg/mL", "modifier.sign": "=", "Minimal inhibitory concentration (MIC)": 25.0}
{"molecule": "FC(OCC1COC(Cn2ccnc2)(c2ccc(F)cc2F)O1)=C(c1ccc(C(F)(F)F)cc1)C(F)(F)F (mixture of isomers)", "unit.name": "µg/mL", "modifier.sign": "=", "Minimal inhibitory concentration (MIC)": 25.0}
{"molecule": "Cc1cc(C)cc(C=C(F)OCC2COC(Cn3ccnc3)(c3ccc(Cl)cc3Cl)O2)c1 (centres unmarked)", "unit.name": "µg/mL", "modifier.sign": "=", "Minimal inhibitory concentration (MIC)": 12.5}
{"molecule": "Cc1cc(C)cc(C(=C(F)OCC2COC(Cn3ccnc3)(c3ccc(F)cc3F)O2)C(F)(F)F)c1 (mixture of isomers)", "unit.name": "µg/mL", "modifier.sign": "=", "Minimal inhibitory concentration (MIC)": 12.5}
{"molecule": "FC(OCC1COC(Cn2ccnc2)(c2ccc(F)cc2F)O1)=C(c1cccc(F)c1)C(F)(F)F (mixture of isomers)", "unit.name": "µg/mL", "modifier.sign": "=", "Minimal inhibitory concentration (MIC)": 12.5}
